B1: C10orf62 (parent)
chain: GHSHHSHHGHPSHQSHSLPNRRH

# Variants of: B1
# Test method notes: protein stability index of a GFP-peptide fusion (GPS, HEK-293T) (PSI 1-6); higher = more stable;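 also: lentivirally expressed fusions sorted by FACS into six bins by GFP to DsRed ratio, PSI derived from sequencing read proportions per bin multiplied by bin number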
# Measurement context: c terminus: native
Property name: protein stability index
One number for each entry.

Some solved entries appear below for comparison.
- Q14F: 2.56
- H23C: 2.68
- R21V: 1.39
- S12R: 4.62
- S3Q: 2.63
- S15Q: 2.95

For the 5 variants below, give their protein stability index values.
1. H8S
2. R22L
3. R22Y
4. P11L
5. H5W

OUTPUT:
2.96
1.29
2.11
3.12
2.3

Please report protein stability index for every entry that follows.
1. L18Q
2. S3L
3. R22T

OUTPUT:
1. 3.76
2. 1.31
3. 3.14

Batch: protein stability index for all items listed.
1. S6F
2. H8F
3. P19D
4. G9W

OUTPUT:
1: 2.95; 2: 3.5; 3: 3.02; 4: 3.1

Source listed as the supplement of paper PMC10567573.
